B1: TPR t1 (parent)
chain: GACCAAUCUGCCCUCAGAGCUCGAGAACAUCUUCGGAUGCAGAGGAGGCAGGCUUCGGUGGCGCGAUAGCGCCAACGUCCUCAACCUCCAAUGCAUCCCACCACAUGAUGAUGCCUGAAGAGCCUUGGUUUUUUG

Variants of: B1
Test: polymerase ribozyme fitness, log enrichment relative to wild type (log ratio); higher = more active; in vitro selection for triplet polymerase activity
QUANTITY NAME: polymerase ribozyme fitness (log ratio)
The response must contain the number and no unit.

C20U G52C C72U | -2.41

Q: # lookup: polymerase ribozyme fitness (log ratio) of C8U C76G A90C C101U
Result: -1.52

Q: Return reported polymerase ribozyme fitness (log ratio); argument: G69C C97G C101A G107A U112G U130G
Result: -6.6

Q: Which polymerase ribozyme fitness (log ratio) reading was recorded for the variant G45C C89U U133A ?
Result: -1.58

Q: polymerase ribozyme fitness (log ratio) lookup needed for A83U G128C , thanks.
Result: -2.32

Q: Which measured polymerase ribozyme fitness (log ratio) value corresponds to C40G G52U ?
Result: -2.76

Q: // returns reported polymerase ribozyme fitness (log ratio) for input C8A A24G U32A C73G A111G
Result: -4.24

Q: Value lookup for polymerase ribozyme fitness (log ratio); key = G61A C89A A90U A91G
Result: -1.77
